Molecular target: Ubiquitin carboxyl-terminal hydrolase isozyme L5 (Homo sapiens)
Assay: proteasome-bound UCH37 Ub-AMC cleavage inhibition – biochemical, Ub-AMC cleavage rate, fluorescence, confirmation (AID 624100);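 further: based on cleavage rate fitted by regression over a 30 min kinetic read; 0% = proteasome plus Ub-AMC and 100% = Ub-AMC without proteasome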
Conditions: at 20 µM
The list shows a part of the results. Active and inactive are the calls of the source.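 How the source made its calls: active means average inhibition over replicates above about 50%, so the earlier screening hit is confirmed (limit read from the data); inactive means the rest, counted as false positives.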
Permitted responses: active, inactive

Previously resolved entries follow.
CCCCCCCCn1c2c(c(=N)c3c1CCC3)CCCC2 = inactive
COc1ccc(S(=O)(=O)/N=C2\C=C(NS(=O)(=O)c3ccccc3)C(=O)c3ccccc32)cc1 = active
O=C(OCC(=O)N1CCN(c2ccccc2)CC1)c1ccc([N+](=O)[O-])s1 = inactive
CC(OC(=O)c1c(F)cccc1F)C(=O)NCCC1=CCCCC1 (stereo not drawn) = inactive
O=C1C(Cl)=C(Oc2ccccc2)C(=O)c2ccccc21 = active

Ask | Short answer needed: outcome of this test for N#C/C(=C/c1ccc(N2CCOCC2)o1)C(=O)N1CCOCC1 ?
Reply | inactive

Ask | Short answer needed: outcome of this test for COc1ccc(Cn2nnc3c(=O)[nH]c(C4CCN(C(=O)c5ccccc5Cl)CC4)nc32)cc1 ?
Reply | inactive

Ask | Short answer needed: outcome of this test for COc1cccc(C2/C(=C(/O)c3ccc(F)cc3)C(=O)C(=O)N2CCN(C)C)c1 (stereo not drawn) ?
Reply | inactive

Ask | Short answer needed: outcome of this test for CC(C)CC[n+]1ccn(C2=C([O-])c3ccccc3C(=O)/C2=N\S(=O)(=O)c2ccccc2)c1 ?
Reply | inactive

Ask | Short answer needed: outcome of this test for Cc1[nH][nH]c(=O)c1C(c1ccc(-c2ccc(Cl)cc2)o1)c1c(C)[nH][nH]c1=O ?
Reply | inactive

----------
Measured inhibition by item
Target: Ubiquitin carboxyl-terminal hydrolase isozyme L5 (Homo sapiens)
Assay: proteasome-bound UCH37 Ub-AMC cleavage inhibition – biochemical, Ub-AMC cleavage rate, fluorescence, confirmation (AID 624100);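 further: based on cleavage rate fitted by regression over a 30 min kinetic read; 0% = proteasome plus Ub-AMC and 100% = Ub-AMC without proteasome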
Details: at 20 µM, active compounds read high
Some of the results follow.
Answer with a number only, understood to be in %.

CC(C)NC(=O)/C(C#N)=C\c1ccc(N(C)C)c(Br)c1 = 9.32
CC1CCCN(C(=O)c2ccc3c(c2)C(=O)N(CCC2=CCCCC2)C3=O)C1 (stereo not drawn) = 61

Now consider the entry below.
Ask | Which value of inhibition has been reported for Cc1ccc(Nc2cc(C)nc3c(C)ccc([N+](=O)[O-])c23)cc1 in the records?
Reply | 0.827
